Each entry below lists one item and its recorded Area of leaf value.
test system: rice; test: Low temperature assay on rice seedlings; format: in vivo; conditions: 0.1 mg/l, 2 °C, 9 days
Write the answer as a number in cm^2, unit excluded.

Here is how some compounds turned out for Area of leaf.
CC(C)[C@H](C)[C@@H](O)[C@H](O)[C@@H](C)[C@H]1CCC2C3COC(=O)C4C[C@H](O)[C@H](O)C[C@]4(C)C3CC[C@@]21C (stereo partly drawn) [BR1] : 12.8
CC(C)[C@H](C)[C@@H](O)[C@H](O)[C@@H](C)[C@H]1CCC2C3CC(=O)C4C[C@H](O)CC[C@]4(C)C3CC[C@@]21C (stereo partly drawn) [BR4] : 12.6
CC[C@@H](C(C)C)[C@@H](O)[C@H](O)[C@@H](C)[C@H]1CCC2C3COC(=O)C4C[C@H](O)[C@H](O)C[C@]4(C)C3CC[C@@]21C (stereo partly drawn) [BR2] : 12.6
CC(C)C[C@@H](O)[C@H](O)[C@@H](C)[C@H]1CCC2C3CC(=O)C4C[C@H](O)[C@H](O)C[C@]4(C)C3CC[C@@]21C (stereo partly drawn) [BR5] : 12.4
C=C(C(C)C)[C@@H](O)[C@H](O)[C@@H](C)[C@H]1CCC2C3COC(=O)C4C[C@H](O)[C@H](O)C[C@]4(C)C3CC[C@@]21C (stereo partly drawn) [BR3] : 12.6

Shift focus to the following entry.
Looking for the measured Area of leaf of CC(C)(O)CC[C@@H](O)[C@](C)(O)[C@H]1CC[C@@]2(O)[C@@H]3CC(=O)[C@@H]4C[C@@H](O)[C@@H](O)C[C@]4(C)[C@H]3CC[C@]12C [BR6] , can you help?
12.8

Hey, just so you know, these numbers are from patent US9326506B2.
